Multi-source literature compilation: IC50 on Lysine-specific demethylase 4D (Homo sapiens).
ASSAYED_TARGET: Lysine-specific demethylase 4D (Homo sapiens)
Sequence (Q6B0I6 whole entry): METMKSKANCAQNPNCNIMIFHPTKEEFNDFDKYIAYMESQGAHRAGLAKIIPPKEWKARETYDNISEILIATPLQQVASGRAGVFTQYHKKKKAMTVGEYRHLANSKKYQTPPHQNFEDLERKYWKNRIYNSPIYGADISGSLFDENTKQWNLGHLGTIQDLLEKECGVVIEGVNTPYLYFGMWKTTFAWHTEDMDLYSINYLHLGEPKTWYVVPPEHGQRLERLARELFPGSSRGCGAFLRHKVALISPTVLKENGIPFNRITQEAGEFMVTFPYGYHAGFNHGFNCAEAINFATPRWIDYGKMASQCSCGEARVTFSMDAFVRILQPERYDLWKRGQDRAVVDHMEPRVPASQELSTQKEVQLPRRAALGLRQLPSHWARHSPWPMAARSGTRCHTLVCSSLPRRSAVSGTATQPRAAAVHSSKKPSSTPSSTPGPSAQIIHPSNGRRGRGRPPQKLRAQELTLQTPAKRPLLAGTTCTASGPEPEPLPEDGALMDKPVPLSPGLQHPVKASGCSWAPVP
TEST_READOUT: IC50 (nM)

Record excerpt, results attached:
SUBSTANCE_SMILES: O=c1[nH]c(Oc2cnn(C3CCCC3)c2)nc2cnccc12
TEST_RESULT: 501
//
SUBSTANCE_SMILES: CCc1nn2c(nc(O)c3cccnc32)c1C#N
TEST_RESULT: 1850
//
SUBSTANCE_SMILES: O=c1[nH]c(Oc2ccc(Cl)c(O)c2)nc2cnccc12
TEST_RESULT: 316
//
SUBSTANCE_SMILES: O=c1[nH]c(Oc2cnn(CC3CCCCC3)c2)nc2cnccc12
TEST_RESULT: 398

P. Cc1cc(Cl)ccc1COc1ccnn1-c1cc(C(=O)O)ccn1
Q. Cc1nn2c(nc(O)c3cccnc32)c1C#N
R. N#Cc1cnn2c1ncc1cccnc12
# input // ranking: key=IC50, reverse=True Please, when replying, give the labels in the order that was requested.
# output R, Q, P
